applied-conditions: in acetonitrile, 333.15 K

{"smiles-str": "COc1cc(CO)ccc1O", "solubility (mole fraction)": 0.127}

---

applied-conditions: in ethyl acetate, 313.15 K

{"smiles-str": "COc1cc(CO)ccc1O", "solubility (mole fraction)": 0.0393}

---

applied-conditions: in n-pentanol, 293.15 K

{"smiles-str": "COc1cc(CO)ccc1O", "solubility (mole fraction)": 0.0214}

---

applied-conditions: in acetonitrile, 293.15 K

{"smiles-str": "COc1cc(CO)ccc1O", "solubility (mole fraction)": 0.0172}

---

applied-conditions: in n-butanol, 343.15 K

{"smiles-str": "COc1cc(CO)ccc1O", "solubility (mole fraction)": 0.182}

---

applied-conditions: in ethyl acetate, 303.15 K

{"smiles-str": "COc1cc(CO)ccc1O", "solubility (mole fraction)": 0.0296}

---

applied-conditions: in ethyl acetate, 293.15 K

{"smiles-str": "COc1cc(CO)ccc1O", "solubility (mole fraction)": 0.0176}

---

applied-conditions: in n-butyl acetate, 303.15 K
property-label: solubility (mole fraction)

{"smiles-str": "COc1cc(CO)ccc1O", "numeric-value": 0.0177}

---

applied-conditions: in ethyl acetate, 333.15 K
property-label: solubility (mole fraction)

{"smiles-str": "COc1cc(CO)ccc1O", "numeric-value": 0.1}

---

applied-conditions: in isopropanol, 333.15 K
property-label: solubility (mole fraction)

{"smiles-str": "COc1cc(CO)ccc1O", "property-label": "solubility (mole fraction)", "numeric-value": 0.149}

---

applied-conditions: in ethanol, 333.15 K
property-label: solubility (mole fraction)

{"smiles-str": "COc1cc(CO)ccc1O", "numeric-value": 0.205}
